- tested-target: CruCA4 (Corallium rubrum)
- Construct: gene CA4
- Sequence (A0A1B0Y987 entry or part of it): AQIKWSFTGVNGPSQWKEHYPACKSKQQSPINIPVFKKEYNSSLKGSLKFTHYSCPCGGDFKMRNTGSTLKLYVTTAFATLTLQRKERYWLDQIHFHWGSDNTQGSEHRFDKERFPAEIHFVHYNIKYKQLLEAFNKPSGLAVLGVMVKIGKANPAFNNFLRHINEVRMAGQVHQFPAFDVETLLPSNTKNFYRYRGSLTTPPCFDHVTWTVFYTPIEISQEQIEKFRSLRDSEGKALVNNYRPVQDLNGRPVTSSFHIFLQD
- assay-details: stopped-flow CO2 hydrase activation assay
- Type: biochemical
- reported-conditions: activation constant (activator); CO2 1.7-17 mM substrate, pH 7.5, 25 °C, 15 min pre-incubation
metric: KA (μM) * / CruCA4 ^b (µM)

# molecule, metric, reading
data = [
    ("NCCN1CCOCC1 [compound 18, 4-(2-Aminoethyl)-morpholine]", "KA (μM) * / CruCA4 ^b", 0.15),
    ("NCCN1CCNCC1 [compound 17, 1-(2-Aminoethyl)-piperazine]", "KA (μM) * / CruCA4 ^b", 0.004),
    ("N[C@@H](Cc1ccc(O)c(O)c1)C(=O)O [compound 5, L-DOPA]", "KA (μM) * / CruCA4 ^b", 13.7),
    ("N[C@H](Cc1ccccc1)C(=O)O [compound 4, D-Phe]", "KA (μM) * / CruCA4 ^b", 1.01),
    ("NCc1ccccn1 [compound 15, 2-Pyridyl-methylamine]", "KA (μM) * / CruCA4 ^b", 0.41),
    ("N[C@H](Cc1ccc(O)c(O)c1)C(=O)O [compound 6, D-DOPA]", "KA (μM) * / CruCA4 ^b", 0.93),
    ("N[C@@H](Cc1c[nH]c2ccccc12)C(=O)O [compound 7, L-Trp]", "KA (μM) * / CruCA4 ^b", 9.48),
    ("N[C@H](Cc1c[nH]c2ccccc12)C(=O)O [compound 8, D-Trp]", "KA (μM) * / CruCA4 ^b", 8.35),
    ("Nc1ccc(C[C@H](N)C(=O)O)cc1 [compound 11, 4-H2N-L-Phe]", "KA (μM) * / CruCA4 ^b", 0.074),
    ("N[C@H](Cc1c[nH]cn1)C(=O)O [compound 2, D-His]", "KA (μM) * / CruCA4 ^b", 0.098),
    ("N[C@@H](Cc1cnc[nH]1)C(=O)O [compound 1, L-His]", "KA (μM) * / CruCA4 ^b", 36.9),
]

Every entry's value here was drawn from paper PMC6017236.
